System: lacZ under control of the tetA promoter (PtetA) in E. coli KM3
Format: cell-based
Settings: Table 6, reverse repressor hits; chlorsulfuron, same plate assay format (20 ppm)
Measurement Kind: relative β-galactosidase activity, inducer Cs

Molecule: L1-41: library L1 hit with reverse repressor activity (SEQ ID NO: 1206-1213) (protein, rSuR L1-41) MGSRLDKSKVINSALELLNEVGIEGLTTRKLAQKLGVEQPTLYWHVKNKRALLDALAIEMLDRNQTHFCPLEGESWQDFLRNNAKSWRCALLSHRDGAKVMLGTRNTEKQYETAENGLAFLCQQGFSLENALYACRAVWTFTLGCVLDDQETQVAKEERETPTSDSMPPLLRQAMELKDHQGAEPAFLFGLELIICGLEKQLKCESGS
Value Reported: 0.61
//
Molecule: L1-21: library L1 hit with reverse repressor activity (SEQ ID NO: 1206-1213) (protein, rSuR L1-21) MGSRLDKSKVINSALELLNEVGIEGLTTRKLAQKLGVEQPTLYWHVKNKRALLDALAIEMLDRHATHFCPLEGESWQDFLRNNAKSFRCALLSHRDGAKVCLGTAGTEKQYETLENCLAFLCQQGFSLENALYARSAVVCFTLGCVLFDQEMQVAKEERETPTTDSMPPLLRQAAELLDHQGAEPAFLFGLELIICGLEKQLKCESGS
Value Reported: 0.89
//
Molecule: L1-36: library L1 hit with reverse repressor activity (SEQ ID NO: 1206-1213) (protein, rSuR L1-36) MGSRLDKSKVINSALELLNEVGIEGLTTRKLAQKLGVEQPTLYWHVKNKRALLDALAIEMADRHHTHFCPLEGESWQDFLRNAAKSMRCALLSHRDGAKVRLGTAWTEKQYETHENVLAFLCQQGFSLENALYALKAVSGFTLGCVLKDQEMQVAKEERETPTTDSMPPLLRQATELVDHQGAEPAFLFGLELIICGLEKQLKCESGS
Value Reported: 0.24

Query: Would you kindly share the measured relative β-galactosidase activity, inducer Cs for L1-34: library L1 hit with reverse repressor activity (SEQ ID NO: 1206-1213) (protein, rSuR L1-34) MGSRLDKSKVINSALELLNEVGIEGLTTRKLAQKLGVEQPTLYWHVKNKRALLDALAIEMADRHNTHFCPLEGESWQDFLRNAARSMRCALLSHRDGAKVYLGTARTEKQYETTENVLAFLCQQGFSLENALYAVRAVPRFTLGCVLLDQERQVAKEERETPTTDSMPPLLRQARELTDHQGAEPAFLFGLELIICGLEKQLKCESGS ?
Result: 0.85
